So I've got a bunch of compounds here, and I need their pEC50 values.
Target: particulate guanylyl cyclase receptor A (pGC-A) (Homo sapiens, UniProt P16066)
Sequence (P16066 33-1061): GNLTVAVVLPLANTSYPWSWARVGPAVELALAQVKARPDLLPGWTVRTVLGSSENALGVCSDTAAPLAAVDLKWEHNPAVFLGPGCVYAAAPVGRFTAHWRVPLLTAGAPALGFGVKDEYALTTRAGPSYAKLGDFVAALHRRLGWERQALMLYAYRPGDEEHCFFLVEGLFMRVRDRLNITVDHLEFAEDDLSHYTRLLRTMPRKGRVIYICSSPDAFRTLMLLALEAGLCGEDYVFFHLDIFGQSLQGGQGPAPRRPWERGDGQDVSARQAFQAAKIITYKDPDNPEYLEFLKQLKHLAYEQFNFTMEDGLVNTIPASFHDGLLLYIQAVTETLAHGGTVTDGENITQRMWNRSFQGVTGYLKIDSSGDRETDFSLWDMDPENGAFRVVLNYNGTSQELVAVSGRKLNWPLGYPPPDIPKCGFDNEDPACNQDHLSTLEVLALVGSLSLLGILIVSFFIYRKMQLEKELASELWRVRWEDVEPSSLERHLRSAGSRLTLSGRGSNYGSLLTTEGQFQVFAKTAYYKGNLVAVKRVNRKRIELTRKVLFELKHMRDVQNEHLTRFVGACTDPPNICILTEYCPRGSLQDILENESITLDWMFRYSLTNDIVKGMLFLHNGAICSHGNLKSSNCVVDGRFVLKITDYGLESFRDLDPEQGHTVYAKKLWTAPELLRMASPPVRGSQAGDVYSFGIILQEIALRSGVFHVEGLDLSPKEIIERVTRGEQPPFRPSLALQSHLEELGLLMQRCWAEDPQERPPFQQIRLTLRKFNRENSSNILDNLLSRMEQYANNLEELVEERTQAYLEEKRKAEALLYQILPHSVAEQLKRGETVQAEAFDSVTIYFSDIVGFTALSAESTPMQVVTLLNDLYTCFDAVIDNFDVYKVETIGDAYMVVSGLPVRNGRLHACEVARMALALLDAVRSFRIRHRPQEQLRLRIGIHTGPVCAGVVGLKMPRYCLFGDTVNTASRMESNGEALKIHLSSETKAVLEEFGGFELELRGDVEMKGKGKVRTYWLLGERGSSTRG
Sequence (P01160 124-151 partner limits assumed): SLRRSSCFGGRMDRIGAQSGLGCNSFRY
Test: cGMP production by HTRF in HEK293 cells overexpressing pGC-A, with ANP
Conditions: HEK293 cells overexpressing pGC-A; test compound plus EC20 concentration of ANP; cGMP by HTRF
Excerpt: Assay: Generally, the assay monitors the production of cGMP, the second messenger generated by pGC-A, by Time-Resolved Florescence (HTRF) in HEK293 cells overexpressing the pGC-A. pGC-A suspension cells were stimulated in the presence of the test compound and an EC20 concentration of ANP. The quantity of cGMP was detected by competitive immunoassay using Eu^3+ cryptate-labeled anti-cGMP and d2-labeled cGMP and normalized to maximal amount produced by an EC80 concentration of ANP. […]
Answers are plain numbers, as −log10 of the molar value.

Use these answered entries as a reference point.
[
  {
    "COMPOUND": "CN(C)C(=O)CN1CCCC(C(=O)Nc2nc3c(F)cc(F)cc3s2)C1 (stereo not shown) [compound 229]",
    "QUANTITY_KIND": "pEC50",
    "ASSAY_RESULT": 5.72
  },
  {
    "COMPOUND": "CN(C)CCCN1CCCCC1C(=O)Nc1nc2c(F)cc(F)cc2s1 (stereo not shown) [compound 041]",
    "QUANTITY_KIND": "pEC50",
    "ASSAY_RESULT": 5.82
  },
  {
    "COMPOUND": "CC1C(N2CCCC(C(=O)Nc3nc4c(Cl)cc(F)cc4s3)C2)CN1C (stereo not shown) [compound 130]",
    "QUANTITY_KIND": "pEC50",
    "ASSAY_RESULT": 6.92
  },
  {
    "COMPOUND": "COC(=O)CN1CC(N2CCCC(C(=O)Nc3nc4c(Cl)cc(F)cc4s3)C2)C1 (stereo not shown) [compound 139]",
    "QUANTITY_KIND": "pEC50",
    "ASSAY_RESULT": 6.70
  },
  {
    "COMPOUND": "CN(C)CCN1CCCC(C(=O)Nc2nc3ccc(Cl)cc3s2)C1 (stereo not shown) [compound 016]",
    "QUANTITY_KIND": "pEC50",
    "ASSAY_RESULT": 5.02
  },
  {
    "COMPOUND": "CN(C)CCN1CCC(C(=O)Nc2nc3c(F)cc(F)cc3s2)CC1 [compound 227]",
    "QUANTITY_KIND": "pEC50",
    "ASSAY_RESULT": 5.82
  }
]

Answer for every listed entry: what is its pEC50? The entries follow.
1. O=C(Nc1nc2c(Br)cccc2s1)C1CCCN(C2CCNC2)C1 (stereo not shown) [compound 101]
2. CN(CCO)CCN1CCCC(C(=O)Nc2nc3c(F)cc(F)cc3s2)C1 (stereo not shown) [compound 242]

Solution:
1: 6.30; 2: 6.15

---

Exercise: for every item that follows, state its recorded EC50.
Biological target: particulate guanylyl cyclase receptor A (pGC-A) (Homo sapiens)
Assay: cGMP production by HTRF in HEK293 cells overexpressing pGC-A, with ANP
Details: HEK293 cells overexpressing pGC-A; test compound plus EC20 concentration of ANP; cGMP by HTRF
Description: Assay: Generally, the assay monitors the production of cGMP, the second messenger generated by pGC-A, by Time-Resolved Florescence (HTRF) in HEK293 cells overexpressing the pGC-A. pGC-A suspension cells were stimulated in the presence of the test compound and an EC20 concentration of ANP. The quantity of cGMP was detected by competitive immunoassay using Eu^3+ cryptate-labeled anti-cGMP and d2-labeled cGMP and normalized to maximal amount produced by an EC80 concentration of ANP. […]

Use the examples below as a reference point.
[
  {
    "COMPOUND": "O=C(Nc1nc2c(F)cc(F)cc2s1)C1CCCN(C(=O)Nc2ccccc2)C1 (stereo not shown)",
    "TARGET_UNDER_TEST": "particulate guanylyl cyclase receptor A (pGC-A) (Homo sapiens)",
    "ASSAY_RESULT": "> 5 µM"
  },
  {
    "COMPOUND": "COc1cc(N2CCCC(C(=O)Nc3nc4c(F)cc(F)cc4s3)C2)ccn1 (stereo not shown)",
    "TARGET_UNDER_TEST": "particulate guanylyl cyclase receptor A (pGC-A) (Homo sapiens)",
    "ASSAY_RESULT": "2.1 µM"
  },
  {
    "COMPOUND": "CN(C)CCN1CCCC(C(=O)Nc2nc3c(F)cc(F)cc3[nH]2)C1 (stereo not shown) [249a]",
    "TARGET_UNDER_TEST": "particulate guanylyl cyclase receptor A (pGC-A) (Homo sapiens)",
    "ASSAY_RESULT": "> 5 µM"
  },
  {
    "COMPOUND": "Cc1ccc(-c2csc(NC(=O)C3CCCN(CCN(C)C)C3)n2)cc1 (stereo not shown)",
    "TARGET_UNDER_TEST": "particulate guanylyl cyclase receptor A (pGC-A) (Homo sapiens)",
    "ASSAY_RESULT": "> 5 µM"
  },
  {
    "COMPOUND": "C=CCN1CCC(N2CCCC(C(=O)Nc3nc4c(F)cc(F)cc4s3)C2)C1 (stereo not shown)",
    "TARGET_UNDER_TEST": "particulate guanylyl cyclase receptor A (pGC-A) (Homo sapiens)",
    "ASSAY_RESULT": "0.05 µM"
  }
]

Report EC50 for each item below.
1. CN(C)C(=O)N1CCCC(C(=O)Nc2nc3c(Cl)cc(F)cc3s2)C1 (stereo not shown)
2. COc1cccc(-c2csc(NC(=O)C3CCCN(CCN(C)C)C3)n2)c1 (stereo not shown)

Solution:
1. 0.18 µM
2. > 5 µM

Could you tell me EC50 for each of these compounds? They are listed below.
1. O=C(Nc1nc2c(F)cc(F)cc2s1)C1CCCN(C2CCNC2)C1 (stereo not shown)
2. CN(C)CCN1CCCC(C(=O)Nc2nc3ccc(F)cc3s2)C1 (stereo not shown)
3. CN(C)CCN1CCCC(C(=O)Nc2nc(-c3cccc(F)c3)cs2)C1 (stereo not shown)

Solution:
1.3 µM
> 10 µM
> 5 µM

Respectfully, I request EC50 for each entry included below.
1. CN(C)CCN[C@@H]1CCC[C@H](C(=O)Nc2nc3c(F)cc(F)cc3s2)C1
2. O=C(O)CN1CCC(N2CCCC(C(=O)Nc3nc4c(F)cc(F)cc4s3)C2)C1 (stereo not shown)

Solution:
> 5 µM
> 5 µM

# batch size: 8; output EC50 per entry
1. CCNC(=O)N1CCCC(C(=O)Nc2nc3c(F)cc(F)cc3s2)C1 (stereo not shown)
2. O=C(Nc1nc2c(F)cc(F)cc2s1)C1CNCc2ccccc21 (stereo not shown)
3. CN(C)CCN1CCCC(C(=O)Nc2ccc3cccc(F)c3n2)C1 (stereo not shown)
4. CN(C)CCN1CCCC(C(=O)Nc2nc(-c3ccccc3Cl)cs2)C1 (stereo not shown)
5. CN(C)CCN1CCCC(C(=O)N(C)c2nc3c(F)cc(F)cc3s2)C1 (stereo not shown)
6. CN(C)CCN1CCCCC(C(=O)Nc2nc3c(F)cc(F)cc3s2)C1 (stereo not shown)
7. CN(C)CCN1Cc2ccccc2C(C(=O)Nc2nc3c(F)cc(F)cc3s2)C1 (stereo not shown)
8. CN(C)CCN1CCCC(C(=O)Nc2nc3c(F)cc(-c4ccccc4)cc3s2)C1 (stereo not shown)

Solution:
1. > 5 µM
2. > 5 µM
3. > 5 µM
4. > 5 µM
5. 2.1 µM
6. 0.6 µM
7. > 5 µM
8. > 5 µM

Look up EC50 for the entries below, preserving their order.
1. COCc1cc(F)c2nc(NC(=O)C3CCCN(CCN(C)C)C3)sc2c1 (stereo not shown)
2. O=C(Nc1nc2c(F)cc(F)cc2s1)C1CCCN(c2ccccn2)C1 (stereo not shown)

Solution:
["> 5 µM", "> 5 µM"]
